Data origin: patent US6096788A

Assay: Therapeutic index in infected mice (antimalaria activity compared with semi-chronic toxicity)
Assay type: in vivo
Conditions: mouse, in vivo, i.p. or s.c., twice a day for four days, ratio of activity over toxicity (LD50)
Below is a list of entries, each paired with its recorded selectivity ratio value.

Consider the reported selectivity ratio for these molecules:
- CCC[N+](C)(CC)CCCCCCCCCCCCCCC[N+](C)(CC)CCC.[Br-].[Br-] (stereo not drawn) [EXAMPLE 2]: 42
- CC[N+](C)(CC)CCCCCCCCCCCCCCCCCCCCC[N+](C)(CC)CC [EXAMPLE 15]: 12
- CCC[N+](CCC)(CCC)CCCCCCCCCCCCCCCCCCCC[N+](CCC)(CCC)CCC.[Br-].[Br-] [EXAMPLE 10]: 14
- CCCCCCCCCCCC[N+](C)(C)CCCCCCCCCCCCCCCC[N+](C)(C)CCCCCCCCCCCC.[Br-].[Br-] [EXAMPLE 22]: 20
- C#CCC[N+](C)(C)CCCCCCCCCCCCCC[N+](C)(C)CCC#C.[Br-].[Br-] [EXAMPLE 26]: 45
- CCC[N+](CCC)(CCC)CCCCCCCCCCCCCCCCCCCCCCCC[N+](CCC)(CCC)CCC.[Br-].[Br-] [EXAMPLE 11]: 28
- CCCCCCCCCCCC[N+](C)(C)CCCCCCCCCCCCCCCCCC[N+](C)(C)CCCCCCCCCCCC [EXAMPLE 23]: 35
- CCC[N+](CCC)(CCO)CCCCCCCCCCCCCC[N+](CCC)(CCC)CCO.[Br-].[Br-] [EXAMPLE 27]: 15

Kindly review the next molecule as well.
### Prompt Name the reported selectivity ratio value associated with the molecule C[N+]1(CCCCCCCCCCCCCCCC[N+]2(C)CCOCC2)CCOCC1 [EXAMPLE 21]
### Response 25
